# MEASURED ON: PD-1/PD-L1 (Homo sapiens (Human), UniProt Q9NZQ7)
# Sequence (Q9NZQ7 19-238): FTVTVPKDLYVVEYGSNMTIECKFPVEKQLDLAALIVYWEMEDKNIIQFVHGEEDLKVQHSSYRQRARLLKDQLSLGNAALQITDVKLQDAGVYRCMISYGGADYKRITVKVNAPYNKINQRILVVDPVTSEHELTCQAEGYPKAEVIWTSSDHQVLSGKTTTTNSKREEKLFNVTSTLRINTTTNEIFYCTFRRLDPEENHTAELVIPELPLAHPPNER
# ASSAY PROTOCOL: PD-1/PD-L1 Binding Assay (Alphascreen)
# APPLIED CONDITIONS: numeric values
# Method: PD-1/PD-L1 Binding Assay (Alphascreen) The assays were conducted in a standard black 384-well polystyrene plate with a final volume of 20 μL. Inhibitors were first serially diluted in DMSO and then added to the plate wells before the addition of other reaction components. The final concentration of DMSO in the assay was 1%. […] Read the AlphaLISA signal value using the Envision Reader. […]
PROPERTY NAME: IC50

molecule=Cc1c(NC(=O)c2cn3c(n2)CNCC3)cccc1-c1cccc(-c2nc3cc(CN4CCC[C@H]4C(=O)O)c(OC(F)F)cc3o2)c1C assay_value="1.6 nM"
molecule=Cc1c(-c2nc3cc(CNC[C@@H]4CCC(=O)N4)c(OC(F)F)cc3o2)cccc1-c1cccc(-c2nc3cc(CN4CCC[C@H]4C(=O)O)c(OC(F)F)cc3o2)c1C assay_value="1.3 nM"
molecule=Cc1c(-c2nc3cc(CN4CC(O)C4)c(OC(F)F)cc3o2)cccc1-c1cccc(-c2nc3cc(CN4CCC[C@H]4C(=O)O)c(OC(F)F)cc3o2)c1C assay_value="1.6 nM"
molecule=Cc1c(-c2ccc3c(c2)CCNC3)cccc1-c1cccc(-c2nc3cc(CN4CCC[C@H]4C(=O)O)c(OC(F)F)cc3o2)c1C assay_value="1.5 nM"
molecule=Cc1c(-c2nc3cc(CN4CCC[C@H]4C(=O)O)c(OC(F)F)cc3o2)cccc1-c1cccc(-c2nc3cc(CN4CCCC4)cc(F)c3o2)c1C assay_value="1.4 nM"
molecule=Cc1c(-c2nc3cc(CN4CCC[C@H]4C(=O)O)c(OC(F)F)cc3o2)cccc1-c1cccc(-c2nc3cc(CN4CCCC4)c(OC(F)F)cc3o2)c1C#N assay_value="1.3 nM"

###

# ASSAY PROTOCOL: Pharmacokinetic Assay, single oral dose 5 mg/kg (Table 12)
# Assay type: in vivo
# APPLIED CONDITIONS: mouse; plasma concentration, C57 female mice, single oral dose 5 mg/kg, 4 h
Respond with 1.0 for concentration at 4 h values of 200 ng/mL and above, 0.0 for values below.

compound="CCS(=O)(=O)N1CCc2oc(-c3cccc(-c4cccc(-c5nc6cc(CN7CCC[C@H]7C(=O)O)c(OC(F)F)cc6o5)c4C)c3C)nc2C1 [Example 197]" group=1.0
compound="Cc1c(-c2ccc(CN3CC[C@@H](c4ccccc4)C3)c(F)c2)cccc1-c1cccc(-c2nc3cc(CN4CCC[C@H]4C(=O)O)c(OC(F)F)cc3o2)c1C [Example 248]" group=1.0
compound="Cc1c(-c2nc3cc(CN4CCC[C@H]4C(=O)O)ccc3o2)cccc1-c1cccc(-c2nc3cc(CN4CCCC4)c(OC(F)F)cc3o2)c1C [Example 317]" group=0.0
compound="Cc1c(-c2nc3cc(CN4CC(C#N)C4)c(OC(F)F)cc3o2)cccc1-c1cccc(-c2nc3cc(CN4CCC[C@H]4C(=O)O)c(OC(F)F)cc3o2)c1C [Example 80]" group=0.0
compound="Cc1c(-c2nc3c(o2)CCOC3)cccc1-c1cccc(-c2nc3cc(CN4CCC[C@H]4C(=O)O)c(OC(F)F)cc3o2)c1C [Example 203]" group=1.0
compound="Cc1c(-c2cnc(N3CCCC3)nc2)cccc1-c1cccc(-c2nc3cc(CN4CCC[C@H]4C(=O)O)c(OC(F)F)cc3o2)c1C [Example 283]" group=1.0

###

# MEASURED ON: PD-1/PD-L1 (Homo sapiens (Human))
# ASSAY PROTOCOL: PD-1/PD-L1 Binding Assay (Alphascreen)
# APPLIED CONDITIONS: range symbols
pIC50: −log10 of the molar value.
Below, each entry is listed alongside its reported pIC50.
PROPERTY NAME: pIC50

compound="Cc1cc(-c2cccc(-c3cccc(-c4nc5cc(CN6CCC[C@H]6C(=O)O)c(OC(F)F)cc5o4)c3C)c2C)ccc1CN1CCCC1 [Example 218]" assay_value="8.30 to 10.00"
compound="Cc1c(-c2ccc(CN3Cc4ccccc4C3)c(F)c2)cccc1-c1cccc(-c2nc3cc(CN4CCC[C@H]4C(=O)O)c(OC(F)F)cc3o2)c1C [Example 241]" assay_value="7.30 to 8.30"
compound="CC[C@@H]1CCN1Cc1cc2nc(-c3cccc(-c4cccc(-c5nc6cc(CN7CCC[C@H]7C(=O)O)c(OC(F)F)cc6o5)c4C)c3C)oc2cc1OC(F)F [Example 42]" assay_value="8.30 to 10.00"
compound="Cc1c(-c2ccc(CN3CCCC3)c(Cl)c2)cccc1-c1cccc(-c2nc3cc(CN4CCC[C@H]4C(=O)O)c(OC(F)F)cc3o2)c1C [Example 219]" assay_value="8.30 to 10.00"
compound="Cc1c(-c2nc3cc(CN4CCC[C@H]4C(=O)O)c(OC(F)F)cc3o2)cccc1-c1cccc(-c2nc3cc(CN4CC(F)C(F)C4)cc(C#N)c3o2)c1C (some centres unmarked) [Example 164]" assay_value="7.30 to 8.30"
compound="Cc1c(Nc2nccc3cc(CNCC4CCC(=O)N4)cnc23)cccc1-c1cccc(-c2nc3cc(CN4CCC[C@H]4C(=O)O)c(OC(F)F)cc3o2)c1C (some centres unmarked) [Example 179]" assay_value="8.30 to 10.00"
compound="C=C1CN(Cc2cc3nc(-c4cccc(-c5cccc(-c6nc7cc(CN8CCC[C@H]8C(=O)O)c(OC(F)F)cc7o6)c5C)c4C)oc3cc2OC(F)F)C1 [Example 81]" assay_value="7.30 to 8.30"
compound="CNCc1cc2nc(-c3cccc(-c4cccc(-c5nc6cc(CN7CCC[C@H]7C(=O)O)c(OC(F)F)cc6o5)c4C)c3C)oc2cc1OCc1ccc(S(C)(=O)=O)cc1 [Example 125]" assay_value="8.30 to 10.00"
compound="Cc1c(-c2nc3cc(CN4CC[C@H](C(=O)O)C4)c(OC(F)F)cc3o2)cccc1-c1cccc(-c2nc3cc(CN4CC[C@H](C)C4)cc(C#N)c3o2)c1C [Example 259]" assay_value="8.30 to 10.00"
compound="Cc1c(-c2nc3cc(CN4CCC[C@H]4C(=O)O)c(OC(F)F)cc3o2)cccc1-c1cccc(-c2nc3cc(CN4CCCC4)c(F)c(F)c3n2CC(F)(F)F)c1C [Example 299]" assay_value="< 7.30"
compound="Cc1c(-c2ccc3c(c2)CN(C(C)C(=O)O)C3)cccc1-c1cccc(-c2nc3cc(CN4CCC[C@H]4C(=O)O)c(OC(F)F)cc3o2)c1C (some centres unmarked) [Example 292]" assay_value="7.30 to 8.30"
compound="Cc1c(Oc2ccc(CNC[C@@H]3CCC(=O)N3)cn2)cccc1-c1cccc(-c2nc3cc(CN4CCC[C@H]4C(=O)O)c(OC(F)F)cc3o2)c1C [Example 214]" assay_value="< 7.30"
compound="Cc1c(COc2cc(OCc3cccc(C#N)c3)c(CN3CCC[C@H]3C(=O)O)cc2Cl)cccc1-c1cccc(-c2nc3cc(CN4CCC[C@H]4C(=O)O)c(OC(F)F)cc3o2)c1C [Example 211]" assay_value="8.30 to 10.00"
compound="Cc1c(-c2nc3cc(CN4CCC[C@H]4C(=O)O)c(OC(F)F)cc3o2)cccc1-c1cccc(-c2ccc(CNC[C@@H]3CCC(=O)N3)c(OC(F)F)c2)c1F [Example 216]" assay_value="8.30 to 10.00"
compound="COc1nc(-c2cccc(-c3cccc(-c4nc5cc(CN6CCC[C@H]6C(=O)O)c(OC(F)F)cc5o4)c3C)c2C)ccc1CN1CCC(C)(C)C1 [Example 294]" assay_value="8.30 to 10.00"
compound="Cc1c(-c2nc3cc(CN4CCCC4(C)C)ccc3o2)cccc1-c1cccc(-c2nc3cc(CN4CCC[C@H]4C(=O)O)c(OC(F)F)cc3o2)c1C [Example 311]" assay_value="8.30 to 10.00"
compound="Cc1c(-c2nc3cc(CN4CCC[C@H]4C(=O)O)c(OC(F)F)cc3o2)cccc1-c1cccc(-c2nc3cc(CN4CC(N5CCOCC5)C4)cc(C#N)c3o2)c1C [Example 148]" assay_value="7.30 to 8.30"
compound="Cc1c(-c2nc3cc(CN4CCC[C@H]4C(=O)O)c(OC(F)F)cc3o2)cccc1-c1cccc(-c2nc3cc(CN4CC5(CNC(=O)C5)C4)cc(C#N)c3o2)c1C [Example 146]" assay_value="8.30 to 10.00"
compound="Cc1c(-c2nc3c(o2)CCN(CC2CCO2)C3)cccc1-c1cccc(-c2nc3cc(CN4CCC[C@H]4C(=O)O)c(OC(F)F)cc3o2)c1C (some centres unmarked) [Example 192]" assay_value="7.30 to 8.30"
compound="CCS(=O)(=O)N1CCc2oc(-c3cccc(-c4cccc(-c5nc6cc(CN7CCC[C@H]7C(=O)O)c(OC(F)F)cc6o5)c4C)c3C)nc2C1 [Example 197]" assay_value="7.30 to 8.30"
compound="Cc1c(-c2nc3c(o2)CCN(CCCC(F)(F)F)C3)cccc1-c1cccc(-c2nc3cc(CN4CCC[C@H]4C(=O)O)c(OC(F)F)cc3o2)c1C [Example 191]" assay_value="7.30 to 8.30"
compound="Cc1c(-c2nc3cc(CN4CC5(CCNCC5)C4)c(OC(F)F)cc3o2)cccc1-c1cccc(-c2nc3cc(CN4CCC[C@H]4C(=O)O)c(OC(F)F)cc3o2)c1C [Example 51]" assay_value="8.30 to 10.00"
compound="Cc1c(-c2nc3cc(CN4CCC[C@@H]4C(=O)O)c(OC(F)F)cc3o2)cccc1-c1cccc(-c2ccc(CN3CCCC3)cc2F)c1Cl [Example 224]" assay_value="8.30 to 10.00"
